Data origin: paper PMC7961048

# MEASUREMENT_TARGET: seven human 14-3-3 isoforms
# PROTOCOL: Affinities averaged or compared across the 14-3-3 family (ΔΔGav, KD ratios, affinity maps)
# Assay type: binding
# EXPERIMENTAL_CONDITIONS: Figure 4 panel c; 14-3-3η
Starred links: 1 amine or outer side, 2 acyl side, 3 side chain; linkers in the order of their positions; H or OH if unused. Non-standard residues stand in square brackets, D forms with d. Residues, ends and D or L forms follow the SMILES beside them. *: point of attachment. X1 = O=C(CCCC[C@@H]1SC[C@@H]2NC(=O)N[C@@H]21)NCCCOCCOCCOCCCN*; pT = C[C@@H](OP(=O)(O)O)[C@H](N)C(=O)O; Suc = O=C(CCC(=O)[*:2])[*:1]
Item-by-item account of KD ratios, compared to 14-3-3γ, 14-3-3η
Write the value as a bare number.

Example cases with answers are listed next.
{"columns": ["COMPOUND", "MEASUREMENT_TARGET", "KD ratios, compared to 14-3-3γ, 14-3-3η"],
 "data": [
  ["CC(C)[C@H](NC(=O)[C@H](CCC(=O)O)NC(=O)[C@@H](NC(=O)[C@H](CCC(=O)O)NC(=O)[C@H](CCCNC(=N)N)NC(=O)[C@H](CCCNC(=N)N)NC(=O)[C@H](CCCNC(=N)N)NC(=O)[C@@H]1CCCN1C(=O)[C@H](CCCCN)NC(=O)[C@H](CO)NC(=O)CCC(=O)NCCCOCCOCCOCCCNC(=O)CCCC[C@@H]1SC[C@@H]2NC(=O)N[C@@H]21)[C@@H](C)OP(=O)(O)O)C(=O)O [pHPV35E6T-6R] ({X1-Suc}-SKPRRRE[pT]EV-OH)", "seven human 14-3-3 isoforms", 1.19],
  ["CC(C)C[C@H](NC(=O)[C@H](CCC(N)=O)NC(=O)[C@@H](NC(=O)[C@H](CCC(=O)O)NC(=O)[C@H](CCCNC(=N)N)NC(=O)[C@H](CCCNC(=N)N)NC(=O)[C@@H](NC(=O)[C@H](CCCNC(=N)N)NC(=O)[C@H](CO)NC(=O)[C@H](CO)NC(=O)CCC(=O)NCCCOCCOCCOCCCNC(=O)CCCC[C@@H]1SC[C@@H]2NC(=O)N[C@@H]21)[C@@H](C)O)[C@@H](C)OP(=O)(O)O)C(=O)O", "seven human 14-3-3 isoforms", 2.16],
  ["CC(C)[C@H](NC(=O)[C@H](C)NC(=O)[C@@H](NC(=O)[C@H](CCC(=O)O)NC(=O)[C@H](CCCNC(=N)N)NC(=O)[C@H](CCCNC(=N)N)NC(=O)[C@@H](NC(=O)[C@@H]1CCCN1C(=O)[C@H](CCCCN)NC(=O)[C@H](CO)NC(=O)CCC(=O)NCCCOCCOCCOCCCNC(=O)CCCC[C@@H]1SC[C@@H]2NC(=O)N[C@@H]21)[C@@H](C)O)[C@@H](C)OP(=O)(O)O)C(=O)O [pHPV35E6E-1A] ({X1-Suc}-SKPTRRE[pT]AV-OH)", "seven human 14-3-3 isoforms", 1.33],
  ["CC(C)C[C@H](NC(=O)[C@H](CCCNC(=N)N)NC(=O)CCC(=O)NCCCOCCOCCOCCCNC(=O)CCCC[C@@H]1SC[C@@H]2NC(=O)N[C@@H]21)C(=O)N[C@@H](CCC(N)=O)C(=O)N[C@@H](CCCNC(=N)N)C(=O)N[C@@H](CCCNC(=N)N)C(=O)N[C@@H](CCCNC(=N)N)C(=O)N[C@@H](CCC(=O)O)C(=O)N[C@H](C(=O)N[C@@H](CCC(N)=O)C(=O)N[C@H](C(=O)O)C(C)C)[C@@H](C)OP(=O)(O)O", "seven human 14-3-3 isoforms", 2.15]
]}

In the following, a different compound is considered.
Q: Query: KD ratios, compared to 14-3-3γ, 14-3-3η; subject: CC(C)C[C@H](NC(=O)[C@H](C)NC(=O)[C@@H](NC(=O)[C@H](CCC(=O)O)NC(=O)[C@H](CCCNC(=N)N)NC(=O)[C@H](CCCNC(=N)N)NC(=O)[C@H](CCCNC(=N)N)NC(=O)[C@H](CO)NC(=O)[C@H](CCCNC(=N)N)NC(=O)[C@H](CO)NC(=O)CCC(=O)NCCCOCCOCCOCCCNC(=O)CCCC[C@@H]1SC[C@@H]2NC(=O)N[C@@H]21)[C@@H](C)OP(=O)(O)O)C(=O)O [pHPV33E6] ({X1-Suc}-SRSRRRE[pT]AL-OH)
Ans: 2.11
